Molecular target: T1, human TNFR2 (expressed on cells) (human, UniProt P20333 23-461)
T1 construct: also called hTNFR2; human TNF Receptor 2
T1 sequence: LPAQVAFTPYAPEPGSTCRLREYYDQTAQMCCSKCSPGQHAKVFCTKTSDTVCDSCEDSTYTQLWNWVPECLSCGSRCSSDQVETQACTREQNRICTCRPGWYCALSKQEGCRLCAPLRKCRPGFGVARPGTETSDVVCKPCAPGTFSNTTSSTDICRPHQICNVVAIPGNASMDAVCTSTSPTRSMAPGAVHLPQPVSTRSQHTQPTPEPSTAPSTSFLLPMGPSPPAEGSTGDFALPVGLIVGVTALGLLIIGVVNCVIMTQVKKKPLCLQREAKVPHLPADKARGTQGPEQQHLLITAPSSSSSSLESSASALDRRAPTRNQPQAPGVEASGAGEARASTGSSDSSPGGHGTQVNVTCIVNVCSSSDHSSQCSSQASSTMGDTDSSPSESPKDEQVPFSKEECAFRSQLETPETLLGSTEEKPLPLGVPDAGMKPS
Assay: flow cytometry competition, CHO cells with human TNFR2, antibody 0.039 µg/mL, Biotin-hTNFα 0.5 µg/mL
Procedure: 30 μl of Biotin-hTNFα (Acro Biosystems, Cat #: TNA-H82E1) was added to each well (with a final concentration of 0.5 μg/mL in each well). The cells with Biotin-hTNFα and the antibodies were incubated at 4° C. for 30 minutes. The signals for AF647 and PE were determined by flow cytometry (Thermo Attune NX).
Consider the following binders; for each one, report its percentage of tested cells that had Streptavidin signals.
Provide the reading as a plain figure in %.

Could you share which percentage of tested cells that had Streptavidin signals value was measured for BC-1A8-IgG1 (antibody, V domains shown, Fully human VH/VL joined to the human IgG1 subtype, kappa light chain (RenMab mice)) VH: QVQLQQSGPGLVKPSQTLSLTCAISGDSVSSNSAAWNWIRQSPSRGLEWLGRTYYRSKWYNDYALSVKSRITINPETSKNQFSLQLNSVTPEDTAVYYCAREDGVGGTKDYFDYWGQGTLVTVSS VL: DIQMTQSPSSLSASVGDRVTITCQASQDIDNYLNWYQQKPGKAPKLLIYDVSNLEIGVPSRFSGSGSGTDFTFTISSLQPEDIATYYCQQYDNLPLTFGQGTRLEIK ? 62.8

Could you share which percentage of tested cells that had Streptavidin signals value was measured for BC-1B6-IgG1 (antibody, V domains shown, Human VH/VL joined to the human IgG1 subtype) VH: QVQLVESGGGVVQPGRSLRLSCAASGFTFSNFGMHWVRQAPGKGLEWVAVIWYEGSDKYYADSVKGRFTISRDNSKNTLYLQMNSLRAEDTAVYYCARDSSWGFLLYGMDVWGQGTTVTVSS VL: DVVMTQSPLSLPVTLGQPASISCRSSRSLEYSDGNTYLNWFQQRPGQSPRRLIYKVSNRDSGVPDRFSGSGSGTAFTLKISGVEAEDVGVYYCMQGTHWPPTFGGGTKVEIK ? 78.9

Could you share which percentage of tested cells that had Streptavidin signals value was measured for BC-1C3-IgG1 (antibody, V domains shown, Human VH/VL joined to the human IgG1 subtype) VH: QVQLVESGGGVVHPGKSLRLSCAASGFTFNIYGMHWVRQAPGKGLEWVALISYDGNDKYFADSVKGRFTISRDNSKNTLYLQMNSLRAEDTAVYYCAKAVDTAVVTFFDYWGQGTLVTVSS VL: EIVMTQSPVTLSVSPGERATLSCRASQSVSSNLAWYQQKPGQAPRLLIYSASTRATGIPARFSGSGSGTEFTLTISSLQSEDLAVYYCQQYSNWPFTFGPGTKVDIK ? 77

Could you share which percentage of tested cells that had Streptavidin signals value was measured for BC-1F4-IgG1 (antibody, V domains shown, Human VH/VL joined to the human IgG1 subtype) VH: QVQLQQSGPGLVKPSQTLSLTCAISGDSVSSDSSAWNWIRQSPSRGLEWLGRTYYRSKWYNDYTVSVKSRITINPDTSKNQFSLQLNSVTPEDTAVYYCAREDGVGGTKDYFDYWGQGTLVTVSS VL: DIQMTQSPSSLSASVGDRVTITCQASQDISNYLNWYQQKPGKAPKLLIYDASNLETGVPSRFSGSGSGTDFTFTINSLQPEDFATYFCQQYDNLPITFGQGTRLEIK ? 84.6
